In this section, each of the compounds is paired with its reported IC50.
Tested on: MDA-MB-231
Assay: Cytotoxicity against human MDA-MB-231 cells assessed as inhibition of cell proliferation after 48 hrs by XTT assay
Assay type: functional, cell-based
Conditions: MDA-MB-231, 48 h
State just the number; it will be interpreted in µM.

Solved entries:
COc1cccc2c1C(=O)c1c(O)c3c(c(O)c1C2=O)C[C@@](O)(C(=O)CO)C[C@@H]3O[C@H]1C[C@H](N)[C@H](O)[C@H](C)O1 [DOXORUBICIN] ... 0.98
C=CCOc1cc2oc3cc(OCC=C)c(OC)c(CC=C(C)C)c3c(=O)c2c(OC)c1CC=C(C)C ... 28
COc1c(OC(C)=O)cc2oc3cc(O)c(CC=C(C)C)c(O)c3c(=O)c2c1CC=C(C)C ... 12.9
C=CCOc1cc2oc3cc(O)c(CC=C(C)C)c(O)c3c(=O)c2c(CC=C(C)C)c1OC ... 17.9
CC(C)=CCc1c(O)cc2oc3cc(O)c(O)c(CC=C(C)C)c3c(=O)c2c1O ... 5.87
COc1c(OC(C)=O)cc2oc3cc(OC(C)=O)c(CC=C(C)C)c(O)c3c(=O)c2c1CC=C(C)C ... 17.4

Please look at this compound and report its IC50: COc1c(O)cc2oc3cc4c(c(O)c3c(=O)c2c1CC=C(C)C)C=CC(C)(C)O4 [MANGOSTANIN]
21.1

Please look at this compound and report its IC50: COc1c(O)cc2oc3c(Cl)c(O)c(CCC(C)C)c(O)c3c(=O)c2c1CCC(C)C
10.1

Please look at this compound and report its IC50: COc1c(OS(=O)(=O)C(F)(F)F)cc2oc3cc(OS(=O)(=O)C(F)(F)F)c(CC=C(C)C)c(O)c3c(=O)c2c1CC=C(C)C
16.9

Please look at this compound and report its IC50: COc1c(O)cc2oc3c(N)c(O)c(CCC(C)C)c(O)c3c(=O)c2c1CCC(C)C
17.6

====

System: NCI-H460
Assay: Cytotoxicity against human NCI-H460 cells assessed as inhibition of cell proliferation after 48 hrs by XTT assay
Format: functional, cell-based
Conditions: NCI-H460, 48 h
In this section, each of the compounds is paired with its reported pIC50.
In simple prose, pIC50 is minus the logarithm base ten of a concentration in moles per litre.

Solved entries:
COc1c(O)cc2oc3c(N)c(O)c(CCC(C)C)c(O)c3c(=O)c2c1CCC(C)C ... 4.82
CC(C)=CCc1c(O)cc2oc3cc(O)c(O)c(CC=C(C)C)c3c(=O)c2c1O ... 5.35
COc1c(O)cc2oc3cc(O)c(CCC(C)C)c(O)c3c(=O)c2c1CCC(C)C ... 5.38

As a next step, examine the compound that follows.
Please look at this compound and report its pIC50: COc1c(O)cc2oc3cc(O)c(CC=C(C)C)c(OC)c3c(=O)c2c1CC=C(C)C
4.97

====

System: MDA-MB-231
Assay: Cytotoxicity against human MDA-MB-231 cells assessed as inhibition of cell proliferation after 48 hrs by XTT assay
Format: functional, cell-based
Details: MDA-MB-231, 48 h
pIC50: −log10 of the molar value.
# cutoff 5 applies to pIC50; >= gives met, < gives not met

COc1c(OCC(=O)O)cc2oc3cc(O)c(CC=C(C)C)c(O)c3c(=O)c2c1CC=C(C)C ... not met
COc1c(OCC(=O)O)cc2oc3cc(OCC(=O)O)c(CC=C(C)C)c(O)c3c(=O)c2c1CC=C(C)C ... not met
COc1c(O)cc2oc3cc(O)c(CC=C(C)C)c(O)c3c(=O)c2c1CC=C(C)C ... met

Please check the record COc1c(O)cc2oc3cc(O)c(CCC(C)C)c(O)c3c(=O)c2c1CCC(C)C and state if its pIC50 is at or above 5.
met

Please check the record COc1c(O)cc2oc3cc4c(c(O)c3c(=O)c2c1CC=C(C)C)CCC(C)(C)O4 and state if its pIC50 is at or above 5.
not met

Please check the record COc1c(O)cc2oc3cc(O)c(CC=C(C)C)c(OC)c3c(=O)c2c1CC=C(C)C and state if its pIC50 is at or above 5.
not met

Please check the record COc1c(O)cc2oc3c([N+](=O)[O-])c(O)c(CCC(C)C)c(O)c3c(=O)c2c1CCC(C)C and state if its pIC50 is at or above 5.
not met

Please check the record C=CCOc1cc2oc3cc(OCC=C)c(OC)c(CC=C(C)C)c3c(=O)c2c(O)c1CC=C(C)C and state if its pIC50 is at or above 5.
not met

Please check the record COc1c(N)cc2oc3ccc(CCC(C)C)c(O)c3c(=O)c2c1CCC(C)C and state if its pIC50 is at or above 5.
not met
